- Test system: A/HK/7/87 virus (H3N2 subtype), wt M2
- Format: cell-based, influenza A virus
Where a name gives a salt, the structure may show the parent alone.
assay_readout: Antiviral activity in the PRA

>>> print(df.to_string())
                                   compound  measured_result
0  Cl.OC1(CC2CCNCC2)C2CC3CC(C2)CC1C3 (stereo not drawn) [Compound 15]           active
1  C1CCC(C23CC4CC(CC(C4)C2)C3)NC1 (stereo not drawn) [Compound 8, 2-(1-adamantyl)piperidine hydrochloride]           active
2  C1CC(C23CC4CC(CC(C4)C2)C3)CCN1 [Compound 2, 4-(1-adamantyl)piperidine hydrochloride]           active
